# solubility values compiled below
test: Solubility of the compound in water at pH 6.5 by HPLC analysis; type: physicochemical
parameter measured: solubility (µM)

[
  {
    "query smiles": "C[C@]1(CN2CCc3nc(-c4cc(F)c(F)c(F)c4)ccc3C2)Cn2cc([N+](=O)[O-])nc2O1",
    "result comparator": "<",
    "measured number": 1
  },
  {
    "query smiles": "C[C@]1(CN2CCc3nc(-c4ccc(F)cc4)ccc3C2)Cn2cc([N+](=O)[O-])nc2O1",
    "result comparator": "=",
    "measured number": 9.41
  },
  {
    "query smiles": "C[C@]1(CN2CCc3nc(-c4ccccc4)ccc3C2)Cn2cc([N+](=O)[O-])nc2O1",
    "result comparator": "=",
    "measured number": 3.35
  }
]

Data provenance: ChEMBL document CHEMBL4346752
